- testedTarget: Mu-type opioid receptor (Homo sapiens) (UniProt P35372)
- Sequence (P35372 whole entry): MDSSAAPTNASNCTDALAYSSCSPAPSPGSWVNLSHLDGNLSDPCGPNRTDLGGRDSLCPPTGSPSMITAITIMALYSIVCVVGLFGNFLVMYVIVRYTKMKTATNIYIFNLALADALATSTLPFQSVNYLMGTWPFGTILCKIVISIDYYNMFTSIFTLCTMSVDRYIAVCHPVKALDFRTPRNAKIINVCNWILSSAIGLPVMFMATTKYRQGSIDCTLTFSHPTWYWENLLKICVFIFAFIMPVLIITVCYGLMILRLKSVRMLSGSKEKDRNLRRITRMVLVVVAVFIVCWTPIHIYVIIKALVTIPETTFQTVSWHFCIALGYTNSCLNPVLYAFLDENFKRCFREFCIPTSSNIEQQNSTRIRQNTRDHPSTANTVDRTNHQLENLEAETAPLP
- measurementParameters: Compound concentration 10 µM
- Description: PDSP Primary Binding target: OPRM1 - Compounds are tested at 10 uM concentration, plate are incubated at room temperature in the dark for 90 minutes. Reaction are stopped by vacuum filtration onto 0.3% polyethyleneimine soaked filter mats using Filtermate harvester. Scintilation cocktail is then melted onto microwave-dried filters on a hot plate and the radio activity is counted in Microbia counter.
# label = fulfilled if inhibition >= 20% else not fulfilled

compound	groupLabel
Cc1ccc(O)c([C@H](CCN(C(C)C)C(C)C)c2ccccc2)c1	not fulfilled
CSc1ccc(C(=O)N[C@@H]2CCCC[C@@H]2NC(=O)CNC(=O)c2cc(C(F)(F)F)ccc2NC(=O)NC(C)C)cc1	fulfilled
OCc1cc(C(O)CNCCCCCCOCCCCc2ccccc2)ccc1O (stereo unspecified)	not fulfilled
Cc1c(C(=O)NC2CCCCC2)sc2nc3ccc(N)cc3n12	not fulfilled
Cc1cn2cc(CC(=O)N3CCC4(CC3)CN(Cc3ccc(-n5nccn5)cc3Cl)C4)nc2s1	fulfilled
Cc1cc(NC(=O)NCCN2CCC(O)(Cc3ccccc3)CC2)c2ccccc2n1	fulfilled
Clc1cccc(COc2cncc(N3CCNCC3)n2)c1	not fulfilled
CCCNS(=O)(=O)Nc1ncnc(OCCOc2ncc(Br)cn2)c1-c1ccc(Br)cc1	fulfilled

# bool: inhibition of Brc1c(NC2=NCCN2)ccc2nccnc12 >= 20%
not fulfilled

# bool: inhibition of N#Cc1ccc(NC(=O)Nc2ccccc2Br)c2nn[nH]c12 >= 20%
fulfilled

* * *

- testedTarget: 5-hydroxytryptamine receptor 1E (Homo sapiens)
- measurementParameters: Compound concentration 10 µM; call rule not given here
Would you mind answering with one of these outcomes? true = active, false = inactive

Answer briefly: the call reported for Cc1ccccc1N1CCN(S(=O)(=O)C[C@]23CC[C@H](C[C@@H]2NC(=O)[C@@H](N)CCS(C)(=O)=O)C3(C)C)CC1 in this assay.
false

Answer briefly: the call reported for FC(F)(F)c1cccc(-c2noc(-c3cc(-c4ccccc4)c(C(F)(F)F)s3)n2)c1 in this assay.
false

Answer briefly: the call reported for Cc1cccc(NC(=O)N[C@@H]2N=C(c3ccccc3)c3ccccc3N(C)C2=O)c1 in this assay.
false

* * *

- testedTarget: Histamine H3 receptor (Homo sapiens)
- measurementParameters: Compound concentration 10 µM
- Description: PDSP Primary Binding target: HRH3 - Compounds are tested at 10 uM concentration, plate are incubated at room temperature in the dark for 90 minutes. Reaction are stopped by vacuum filtration onto 0.3% polyethyleneimine soaked filter mats using Filtermate harvester. Scintilation cocktail is then melted onto microwave-dried filters on a hot plate and the radio activity is counted in Microbia counter.
measurementName: inhibition (%)
Form entry: value (%) — number only.

Note to self: inhibition recorded for CCCn1c(=O)c2nc(C34CC5CC(CC3C5)C4)[nH]c2n(CCC)c1=O was -9.29

Note to self: inhibition recorded for O=c1ccc2ccc(OCCCCN3CCN(c4cccc5sccc45)CC3)cc2[nH]1 was 54.5

Note to self: inhibition recorded for O=c1ccn([C@@H]2O[C@H](COP(=O)(O)OP(=O)(O)OP(=O)(O)O)[C@@H](O)[C@H]2O)c(=O)[nH]1 was 5.87

Note to self: inhibition recorded for S=C(NCCCc1c[nH]cn1)NCCCN(Cc1ccc(Cl)c(Cl)c1)c1ccc(Br)cn1 was 100

Note to self: inhibition recorded for CN1C(=O)[C@@H](NC(=O)c2cc3ccccc3[nH]2)N=C(c2ccccc2)c2ccccc21 was 5.34

Note to self: inhibition recorded for COC1CCN(c2cccc(-c3cc(NC(C)=O)nc(-n4nc(C)cc4C)n3)n2)CC1 was 1.55

* * *

Catalogue of inhibition readings, one per entry.
- testedTarget: Sigma non-opioid intracellular receptor 1 (Homo sapiens) (UniProt Q99720)
- Sequence (Q99720 whole entry): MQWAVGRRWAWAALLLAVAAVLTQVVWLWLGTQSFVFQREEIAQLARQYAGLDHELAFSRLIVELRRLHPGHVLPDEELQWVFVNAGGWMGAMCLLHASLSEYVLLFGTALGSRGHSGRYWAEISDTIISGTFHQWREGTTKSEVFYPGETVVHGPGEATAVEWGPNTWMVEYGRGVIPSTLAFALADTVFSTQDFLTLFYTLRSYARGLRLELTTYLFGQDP
- measurementParameters: Compound concentration 10 µM
- Description: PDSP Primary Binding target: SIGMAR1 - Compounds are tested at 10 uM concentration, plate are incubated at room temperature in the dark for 90 minutes. Reaction are stopped by vacuum filtration onto 0.3% polyethyleneimine soaked filter mats using Filtermate harvester. Scintilation cocktail is then melted onto microwave-dried filters on a hot plate and the radio activity is counted in Microbia counter.
Form entry: value (%) — number only.

Worked cases, answers included:
compound	inhibition (%)
COc1ccc(Br)cc1S(=O)(=O)NC(=O)/C=C/c1ccccc1Cc1ccc2ccccc2c1	11
O=C(O)COc1cccc(CN(Cc2ccc(-n3cccn3)cc2)S(=O)(=O)c2cccnc2)c1	5.04
O=C(O)CC/C=C\C[C@@H]1CO[C@H](c2ccccc2Cl)O[C@@H]1c1ccccc1O	-1.8

Note to self: inhibition recorded for Cc1csc2c(N[C@@H](C)CN3CCN(S(=O)(=O)c4ccc(Cl)c(Cl)c4)CC3)ncnc12 was 86

Note to self: inhibition recorded for Cc1cc(C(=O)N2Cc3cnn(C)c3Nc3ccccc32)ccc1CNC(=O)N1CCC[C@H]1C(=S)N1CCCN(C)CC1 was -7.44

Note to self: inhibition recorded for N#Cc1cccc(C(=O)Nc2cc(-c3ccccc3)nn2-c2ccccc2)c1 was 8.95

Note to self: inhibition recorded for CC(C)(C)NC[C@H](O)COc1nsnc1N1CCOCC1 was 90.3

Note to self: inhibition recorded for Cc1nn(C)c(C)c1-c1cccc2c1CC[C@H](N(C)C)C2 was 102

Note to self: inhibition recorded for Cc1nc(C(=O)N2CCC[C@H]2Cc2nnc(-c3ccccc3)o2)c(-c2ccccc2F)s1 was 35.9

Note to self: inhibition recorded for O=C(c1cc2c(cc1F)OC(c1ccc(F)cc1)(c1ccc(Cl)cc1Cl)O2)N1CCOCC1 (centres undefined) was 48.5

Note to self: inhibition recorded for CCc1cc(C(C)=O)c(O)cc1OCCCCCC(C)(C)c1nn[nH]n1 was 61.4

Note to self: inhibition recorded for CCc1nn(CCCN2CCN(c3cccc(Cl)c3)CC2)c(=O)n1CCOc1ccccc1 was 1.48

Note to self: inhibition recorded for CC1CCN(CC[C@H]2CCCN2S(=O)(=O)c2cccc(O)c2)CC1 was -8.64

Note to self: inhibition recorded for COc1ccccc1CN[C@H]1C2CCN(CC2)[C@H]1C(c1ccccc1)c1ccccc1 was 48.5

Note to self: inhibition recorded for CCc1cc2c(c(CC)n1)CCC(=O)N2Cc1ccc(-c2ccccc2-c2nnn[nH]2)cc1 was 24.9

Note to self: inhibition recorded for CCCNS(=O)(=O)Nc1ncnc(OCCOc2ncc(Br)cn2)c1-c1ccc(Br)cc1 was 15.8

Note to self: inhibition recorded for OC1(c2ccc(Cl)cc2)CCN(Cc2c[nH]c3ccccc23)CC1 was 2.38

Note to self: inhibition recorded for CC(C)NCC(O)COc1ccc(CCOCC2CC2)cc1 (centres undefined) was 91.7

Note to self: inhibition recorded for O=C(O)c1cc(-c2ccc(C3CCNCC3)cc2)c2ccc(-c3ccc(C(F)(F)F)cc3)cc2c1 was 31.5

* * *

- testedTarget: 5-hydroxytryptamine receptor 2B (Homo sapiens)
- measurementParameters: Compound concentration 10 µM; call rule not given here
Would you mind answering with one of these outcomes? class 1 for active, class 0 for inactive

compound	groupLabel
c1nc(CC2CCNCC2)c[nH]1	class 0
Cc1c(C(=O)NC2CCCCC2)sc2nc3ccc(N)cc3n12	class 1
CC(C)(C(=O)O)c1ccc(C(O)CCCN2CCC(C(O)(c3ccccc3)c3ccccc3)CC2)cc1 (stereo unspecified)	class 1
CCCCN1CCC(COC(=O)c2cc(Cl)c(N)c3c2OCCO3)CC1	class 1
COC1CCN(c2cccc(-c3cc(NC(C)=O)nc(-n4nc(C)cc4C)n3)n2)CC1	class 0
Cc1nnn(-c2ccc(-c3ccc(C4(C(=O)O)CC4)cc3)cc2)c1NC(=O)O[C@H](C)c1ccccc1	class 0
CC1(C)SSC(C)(C)[C@@H](NC(=O)[C@@H](N)Cc2ccc(O)cc2)C(=O)NCC(=O)N[C@@H](Cc2ccccc2)C(=O)N[C@H]1C(=O)O	class 0
O=S1(=O)c2cccc3cccc(c23)N1CCCN1CCN(c2ccc(F)cc2)CC1	class 1
COc1ccc(NS(=O)(=O)c2sc3ccc(Cl)cc3c2C)cc1N1CCNCC1	class 1
CNc1nc(NCc2ccc(NS(C)(=O)=O)cc2Cl)cc(-c2ccccn2)n1	class 1

Answer briefly: the call reported for N#Cc1ccc2[nH]cc(CCCCN3CCN(c4ccc5oc(C(N)=O)cc5c4)CC3)c2c1 in this assay.
class 1

Answer briefly: the call reported for NCCc1cn(S(=O)(=O)c2c(Cl)nc3sccn23)c2ccccc12 in this assay.
class 1

Answer briefly: the call reported for CN1CC(=O)N=C1NC(=O)Nc1cccc(Cl)c1 in this assay.
class 0

Answer briefly: the call reported for Clc1cccc(Cl)c1NC1=NCCN1 in this assay.
class 1

Answer briefly: the call reported for OC1(c2ccc(Cl)cc2)CCN(Cc2c[nH]c3ccccc23)CC1 in this assay.
class 1

Answer briefly: the call reported for NC[C@H](O)c1ccc(O)c(O)c1 in this assay.
class 0

Answer briefly: the call reported for Cc1nc(-c2ccc(-c3ccc(C(=O)N4CCc5cc6c(cc54)C4(CCN(C)CC4)CO6)cc3)c(C)c2)no1 in this assay.
class 1

Answer briefly: the call reported for COc1ccccc1CN[C@H]1C2CCN(CC2)[C@H]1C(c1ccccc1)c1ccccc1 in this assay.
class 0

Answer briefly: the call reported for CCc1nn2c(C)cc(C)nc2c1Cc1ccc(-c2nnc(C3CCNCC3)o2)cc1 in this assay.
class 0

Answer briefly: the call reported for CN1CCC(=C2c3ccccc3CC(=O)c3sccc32)CC1 in this assay.
class 1

Answer briefly: the call reported for C[C@H](NC[C@H](O)CP(=O)(O)CC1CCCCC1)c1ccc(Cl)c(Cl)c1 in this assay.
class 0

* * *

- testedTarget: Alpha-1A adrenergic receptor (Homo sapiens) (UniProt P35348)
- Sequence (P35348 whole entry): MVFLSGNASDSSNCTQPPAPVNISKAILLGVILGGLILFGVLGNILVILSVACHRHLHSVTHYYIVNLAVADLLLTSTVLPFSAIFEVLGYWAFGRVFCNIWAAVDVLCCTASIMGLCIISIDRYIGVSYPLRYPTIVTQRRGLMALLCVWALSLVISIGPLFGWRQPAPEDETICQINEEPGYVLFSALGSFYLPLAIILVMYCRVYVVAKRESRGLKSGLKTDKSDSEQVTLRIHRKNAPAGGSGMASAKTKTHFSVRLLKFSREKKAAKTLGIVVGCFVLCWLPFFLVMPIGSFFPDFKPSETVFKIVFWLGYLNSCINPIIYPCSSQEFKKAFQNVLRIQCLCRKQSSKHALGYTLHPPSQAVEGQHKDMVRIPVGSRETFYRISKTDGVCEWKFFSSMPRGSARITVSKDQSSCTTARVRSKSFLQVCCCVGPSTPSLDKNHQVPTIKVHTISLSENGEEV
- measurementParameters: Compound concentration 10 µM; call rule not given here
Would you mind answering with one of these outcomes? 1 (yes) (active), 0 (no) (inactive)

cpdSmiles	groupLabel
CCCCN(CC)c1nc(C)nc2c1c(C)cn2-c1c(C)cc(C)cc1C	0 (no)
C/C(=N\NC(=O)[C@@H]1C(=O)NC[C@H]1c1ccccc1)c1cccc(Br)c1	0 (no)
COc1ccc(CNC(=O)c2cc(-c3cncc(Cl)c3)cnc2-c2ccccn2)nc1OC	0 (no)
N=C(N)SCCc1c[nH]cn1	0 (no)
CN1C(=O)[C@@H](NC(=O)c2cc3ccccc3[nH]2)N=C(c2ccccc2)c2ccccc21	0 (no)

Now consider the entry below.
Answer briefly: the call reported for Clc1cccc(Cl)c1NC1=NCCN1 in this assay.
1 (yes)
